target: GLP Receptor; format: biochemical; settings: read-out: IC50 in a GLP Receptor cyclase (RIN) assay
quantity: IC50
Field: value (include unit after the number)

Query: // returns reported IC50 for input DF(P-CH2SO3)MGWNMFGKR KCNTATCATQRLANELVRLQTYPRTNVGSNTY [SEQ ID NO: 398]
Result: 1 µM
